System: Es-2
Test: Primary qHTS to identify gynecologic anti-cancer compounds using libraries of approved drugs and bioactive compounds (AID 1345084); also: nearly all actives have a fitted effect of over 55% in size
Details: Gynecologic cancer cell panel viability, ATPlite luminescence, 48 h; series mostly up to 57.5 µM
From the text: National Center for Advancing Translational Sciences [NCATS] Assay Overview: Chemotherapeutic drug responses vary from cancer to cancer and from patient to patient. […] ATPlite is a luminescence based assay reliant on the conversion of a luciferase substrate to light in the presence of ATP. As a cytotoxic compound will suppress growth and decrease the number of cells, the concentration of ATP will decrease, and less light signal will be detected in the well. […]
Results filed as inconclusive are left out. Activity calls are given as the source filed them. Calls follow the shape of the dose curve; as a rule, active = well fitted cell-killing curve with a large enough effect; inconclusive = small, poorly fitted or top-dose-only effect, or effect the other way; inactive = flat fitted curve, though single readings scatter.
Possible outcomes: 1.0 = active, 0.0 = inactive

compound	classLabel
CCCCN=C(N)N=C(N)N	0.0
Nc1nc(Cl)nc2c1ncn2[C@@H]1O[C@H](CO)[C@@H](O)[C@@H]1F	1.0
CCCCCCCC/C=C\CCCCCCCCN	0.0
CN1CCC(OC(c2ccccc2)c2ccccc2)CC1	0.0
C[C@H]1O[C@@H](O[C@H]2CC[C@@]3(C)[C@H](CC[C@@H]4[C@@H]3C[C@@H](O)[C@]3(C)[C@@H](C5=CC(=O)OC5)CC[C@]43O)C2)C[C@H](O)[C@@H]1O[C@H]1C[C@H](O)[C@H](O[C@H]2C[C@H](O)[C@H](O[C@@H]3O[C@H](CO)[C@@H](O)[C@H](O)[C@H]3O)[C@@H](C)O2)[C@@H](C)O1	1.0
CCOC(=O)c1ccc(N)cc1	0.0
CC(=O)Nc1ncc([N+](=O)[O-])s1	0.0
COc1cc(C)nc(-n2nc(C)cc2OC)n1	0.0
CC(C)Cn1cnc2c1c(=O)n(C)c(=O)n2C	0.0
Cc1ccc(-c2ncc(Cl)cc2-c2ccc(S(C)(=O)=O)cc2)cn1	0.0
NC(=S)N/N=C/c1cccnc1	0.0
CCOc1ccccc1C(N)=O	0.0
CC(C)n1c(/C=C/[C@@H](O)C[C@@H](O)CC(=O)O)c(-c2ccc(F)cc2)c2ccccc21	0.0
CN(C)C(=O)Nc1ccc(Cl)c(Cl)c1	0.0
Cc1ccc(O)c([C@H](CCN(C(C)C)C(C)C)c2ccccc2)c1	0.0
Clc1cccc(C(c2ccc3nc[nH]c3c2)n2ccnc2)c1 (stereo not drawn)	0.0
Cn1c(=O)c2[nH]c(Br)nc2n(C)c1=O	0.0
O=C(CCN1CCN2CCCC2C1)N1c2ccccc2Sc2ccc(Cl)cc21 (stereo not drawn)	0.0

----------
experiment: Drug repurposing screens with cells derived from glioblastoma tumor samples (AID 1345199); conditions: GBM patient neurospheres viability, ATP luminescence, 48 h; at 45.9 µM (top of the series); tumour line B; also: % is scaled to controls: 0 for no effect and ±100 for the full control effect; nearly all actives have a fitted effect of over 40% in size
Results filed as inconclusive are left out. Activity calls are given as the source filed them. Calls follow the shape of the dose curve; as a rule, active = well fitted inhibition curve with a large enough effect; inconclusive = small, poorly fitted or top-dose-only effect; inactive = flat fitted curve, though single readings scatter.
readoutLabel: activity, negative = cell killing

                                   molecule                       readoutlabel            reading
0                  CC(=O)Nc1ccc(CC(=O)O)cc1  activity, negative = cell killing   0.59% (inactive)
1          CC(C)CCCC(C)N (stereo not given)  activity, negative = cell killing  -9.11% (inactive)
2           Nc1nc(-c2ccccc2)c(Br)c(=O)[nH]1  activity, negative = cell killing  -8.97% (inactive)
3                   CC(C)Cc1ccc(CC(=O)O)cc1  activity, negative = cell killing  -12.1% (inactive)
4  O=C1[C@H](CC[C@H](O)c2ccc(F)cc2)[C@@H](c2ccc(O)cc2)N1c1ccc(F)cc1  activity, negative = cell killing  -11.2% (inactive)
5  CC(=O)OCC1=C(C(=O)O)N2C(=O)[C@@H](NC(=O)CSc3ccncc3)[C@H]2SC1  activity, negative = cell killing  -6.44% (inactive)
6                    CCCCCCCC/C=C\CCCCCCCCN  activity, negative = cell killing  -5.85% (inactive)
7                  C/C=C/C=N/NC(=O)c1ccncc1  activity, negative = cell killing  -13.6% (inactive)
8  C#C[C@]1(O)CC[C@H]2[C@@H]3CCc4cc(OC)ccc4[C@H]3CC[C@@]21C  activity, negative = cell killing  -27.2% (inactive)
9  COc1ccc(S(=O)(=O)N2c3ccc(Cl)cc3[C@@](O)(c3ccccc3Cl)[C@H]2C(=O)N2CCC[C@@H]2C(N)=O)cc1OC  activity, negative = cell killing  -16.9% (inactive)

----------
test: qHTS of pediatric cancer cell lines to identify multiple opportunities for drug repurposing: Primary screen for RD cells (AID 1347104); details: RD rhabdomyosarcoma viability, CellTiter-Glo luminescence, 48 h; series mostly up to 46 µM; also: nearly all actives have a fitted effect of over 55% in size
Inconclusive results are not listed. Activity calls are given as the source filed them. Calls come from the whole dose curve; as a rule, active = well fitted cell-killing curve with a large enough effect; inconclusive = small, poorly fitted or top-dose-only effect; inactive = flat fitted curve, though single readings scatter.
Possible outcomes: true (active), false (inactive)

>>> df
                                   molecule  classlabel
0                Cc1cccc(C)c1NC(=O)CN1CCCC1       false
1  Cc1cc2c(OCC(CNC(C)(C)C)OC(=O)c3ccccc3)cccc2[nH]1 (stereo unspecified)       false
2  C#C[C@]1(OC(C)=O)CC[C@H]2[C@@H]3CCC4=C/C(=N/O)CC[C@@H]4[C@H]3CC[C@@]21CC        true
3                   CC(C)Cc1ccc(CC(=O)O)cc1       false
4      CCCN(CCc1cccs1)[C@H]1CCc2c(O)cccc2C1       false
5              CC(C)[C@@H]1CC[C@@H](C)CC1=O       false

----------
Tested on: CP191
Assay: qHTS profiling for inhibitors of Plasmodium falciparum proliferation (AID 504749); also: nearly all actives have a fitted effect of over 60% in size
Conditions: P. falciparum in erythrocytes, SYBR Green DNA, 72 h; series mostly up to 28.7 µM
Protocol: NIH National Institute of Allergy and Infectious Diseases [NIAID] NIH Chemical Genomics Center [NCGC] […] Because mature erythrocytes lack DNA, only Plasmodium-derived DNA is detected. NCGC Assay Protocol Summary: The SYBR Green viability assay was adapted from a method described previously (Plouffe et al., 2008). […] The following morning, fluorescence intensity at 485(14) nm excitation and 535(25) nm emission wavelengths was measured on an EnVision (Perkin Elmer) plate reader. […]
Inconclusive results are not listed. Calls of active or inactive are those of the source. Calls come from the whole dose curve; as a rule, active = well fitted inhibition curve with a large enough effect; inconclusive = small, poorly fitted or top-dose-only effect; inactive = flat fitted curve, though single readings scatter.
Possible outcomes: T for active, F for inactive

In [3]: df
Out[3]:
                                   compound  classlabel
0  CC(=O)OCC(=O)[C@H]1CC[C@H]2[C@@H]3CCC4=CC(=O)CC[C@]4(C)[C@H]3CC[C@]12C           F
1      CN1CCN(C2=Nc3cc(F)ccc3Cc3ccccc32)CC1           F
2  CC(=O)OC[C@H]1O[C@@H](n2ncc(=O)[nH]c2=O)[C@H](OC(C)=O)[C@@H]1OC(C)=O           F
3            Cn1c(=O)c2[nH]c(Br)nc2n(C)c1=O           F
4  N/C(=N\N=C\c1ccc(Cl)cc1)N/N=C/c1ccc(Cl)cc1           T
5             CC(=O)N[C@@H](CCC(=O)O)C(=O)O           F
6              Cc1cccc(C)c1NC(=O)CN1CCCCCC1           F
7    CCN(CC)CCNc1ccc(CO)c2sc3ccccc3c(=O)c12           T
8  COP(=O)(OC)OC(c1ccc(Cl)cc1)P(=O)(OC)OC (stereo not given)           F
9          COc1ccc2c(c1)c1c3n2CCN(C)C3=NCC1           F

----------
Overview of recorded max response for various compounds
system: NIH3T3; test: Cytotoxic Profiling of Annotated Libraries Using Quantitative High-Throughput Screening (AID 1296008); conditions: Five cell lines viability, CellTiter-Glo ATP luminescence, 48-72 h; hits give low values; also: % is scaled to controls: 0 for no effect and ±100 for the full control effect; nearly all actives have a fitted effect of over 60% in size
Results filed as inconclusive are left out.
readoutLabel: max response (%)

>>> print(df.to_string())
                                    compound  reading
 0  CC(=O)OCC(=O)[C@H]1CC[C@H]2[C@@H]3CCC4=CC(=O)CC[C@]4(C)[C@H]3CC[C@]12C    0.692
 1  CC(C)Nc1cccnc1N1CCN(C(=O)c2cc3cc(NS(C)(=O)=O)ccc3[nH]2)CC1    -1.79
 2  CCc1cc(Cl)c(OC)c(C(=O)NC[C@@H]2CCCN2CC)c1O     4.04
 3      Cc1ccccc1OCC(O)CO (stereo not drawn)    -27.4
 4  CCOC(=O)[C@H](CCc1ccccc1)N[C@@H](C)C(=O)N1[C@H](C(=O)O)C[C@@H]2CCC[C@@H]21    0.794
 5                         CCCCN=C(N)N=C(N)N    -1.41
 6           Nc1nc(-c2ccccc2)c(Br)c(=O)[nH]1    -18.4
 7                     C=CCN1CCc2nc(N)sc2CC1     2.55
 8                COc1cc(C(=S)N2CCOCC2)ccc1O    -6.82
 9  CCOC(=O)Nc1ccc2c(c1)N(C(=O)CCN1CCOCC1)c1ccccc1S2    -4.09
10  CCCCNc1ccc(C(=O)OCCOCCOCCOCCOCCOCCOCCOCCOCCOC)cc1     -8.1
11  CC(O)Cn1cnc2c1c(=O)n(C)c(=O)n2C (stereo not drawn)    -9.57
12                  CC(=O)Nc1ccc(CC(=O)O)cc1   -0.623
13               CN(C)C(=O)Nc1ccc(Cl)c(Cl)c1    -5.25
14  COc1cc(C(=O)NCc2ccc(OCCN(C)C)cc2)cc(OC)c1OC    -0.23
15  CCC1Nc2cc(Cl)c(S(N)(=O)=O)cc2S(=O)(=O)N1 (stereo not drawn)      3.7
16                     C/C=C/c1ccc(O)c(OC)c1    -0.28
17  CCC(Cc1c(I)cc(I)c(N)c1I)C(=O)O (stereo not drawn)     2.99
